Listed next: entries and their corresponding EC50.
System: Influenza A virus
test-details: Antiviral activity against Influenza A virus A/Hong Kong/8/68 (H3N2) infected in MDCK cells assessed as reduction in virus-induced cytopathic effect pre-infected with cells for 1 hrs followed by compound addition and measured after 3 days by fluorescein diacetate-based cell viability assay
Assay type: functional, organism-based

Reference set (5 entries):
compound=CCOC(=O)CNc1ccn([C@@H]2O[C@H](CO)[C@@H](O)[C@H]2O)c(=O)n1 val="> 100 µM"
compound="CC(C)C(=O)OC[C@H]1O[C@@H](n2ccc(NO)nc2=O)[C@H](O)[C@@H]1O [MOLNUPIRAVIR]" val="6 µM"
compound=NNc1ccn([C@@H]2O[C@H](CO)[C@@H](O)[C@H]2O)c(=O)n1 val="> 100 µM"
compound="O=c1nc(NO)ccn1[C@@H]1O[C@H](CO)[C@@H](O)[C@H]1O [N-HYDROXYCYTIDINE]" val="2.3 µM"
compound="NC12CC3CC(CC(C3)C1)C2 [AMANTADINE]" val="6.4 µM"

Record O=c1nc(NCCO)ccn1[C@@H]1O[C@H](CO)[C@@H](O)[C@H]1O / Influenza A virus, EC50 recorded as > 100 µM

Record CCOC(=O)[C@H](CC(C)C)Nc1ccn([C@@H]2O[C@H](CO)[C@@H](O)[C@H]2O)c(=O)n1 / Influenza A virus, EC50 recorded as > 100 µM

Record CC(C)(C)OC(=O)NNc1ccn([C@@H]2O[C@H](CO)[C@@H](O)[C@H]2O)c(=O)n1 / Influenza A virus, EC50 recorded as > 100 µM

Record CC(C)C(=O)ONc1ccn([C@@H]2O[C@H](CO)[C@@H](O)[C@H]2O)c(=O)n1 / Influenza A virus, EC50 recorded as 7.3 µM
